Target: CDK7-CycH-MAT1 (Homo sapiens)
Construct: purchased Invitrogen
Sequence (P50613 whole entry): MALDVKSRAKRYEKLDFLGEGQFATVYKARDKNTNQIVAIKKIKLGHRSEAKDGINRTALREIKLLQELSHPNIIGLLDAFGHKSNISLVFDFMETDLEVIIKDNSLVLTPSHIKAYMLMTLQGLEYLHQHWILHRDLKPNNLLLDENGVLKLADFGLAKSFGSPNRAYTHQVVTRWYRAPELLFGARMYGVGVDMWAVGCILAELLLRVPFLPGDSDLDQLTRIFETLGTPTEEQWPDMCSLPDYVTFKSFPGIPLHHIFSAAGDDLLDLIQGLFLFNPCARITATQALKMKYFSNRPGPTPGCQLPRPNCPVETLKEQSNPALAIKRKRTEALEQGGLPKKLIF
Sequence (P51946 whole entry partner): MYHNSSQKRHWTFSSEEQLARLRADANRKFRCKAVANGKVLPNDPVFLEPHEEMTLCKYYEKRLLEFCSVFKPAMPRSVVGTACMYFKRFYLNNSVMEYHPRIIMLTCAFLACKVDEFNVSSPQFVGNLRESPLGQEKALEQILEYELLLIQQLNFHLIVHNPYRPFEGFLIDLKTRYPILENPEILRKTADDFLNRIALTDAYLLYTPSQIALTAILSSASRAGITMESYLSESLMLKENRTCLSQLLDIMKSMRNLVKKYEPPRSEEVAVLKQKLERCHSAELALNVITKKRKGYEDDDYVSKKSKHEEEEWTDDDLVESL
Sequence (P51948 whole entry partner): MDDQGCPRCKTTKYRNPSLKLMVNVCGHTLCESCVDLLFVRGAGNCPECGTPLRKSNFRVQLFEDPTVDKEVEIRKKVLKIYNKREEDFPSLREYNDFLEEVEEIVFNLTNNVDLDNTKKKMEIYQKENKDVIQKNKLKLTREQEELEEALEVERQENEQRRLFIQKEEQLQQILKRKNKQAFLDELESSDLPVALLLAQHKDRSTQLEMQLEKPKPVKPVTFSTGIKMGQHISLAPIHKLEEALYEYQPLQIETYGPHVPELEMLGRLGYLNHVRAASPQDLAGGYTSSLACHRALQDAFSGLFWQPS
Test: AlphaScreen-based kinase assay
Type: biochemical
METRIC: pIC50
Formally, pIC50 is defined as -log10 of the concentration c, with c in mol/L.

Summary: N[C@H]1CC[C@H](Nc2cc(-c3cccc(NCc4cccc(F)c4)n3)c(Cl)cn2)CC1 , CDK7-CycH-MAT1 (Homo sapiens), pIC50 = 5.70

====

Target: UniProt:Q00536
METRIC: IC50

The compound N[C@H]1CC[C@H](Nc2cc(-c3cccc(NCc4cccc(F)c4)n3)c(Cl)cn2)CC1 showed IC50 equal to > 0.14 µM

====

Molecular target: UniProt:Q16512
Sequence (Q16512 whole entry): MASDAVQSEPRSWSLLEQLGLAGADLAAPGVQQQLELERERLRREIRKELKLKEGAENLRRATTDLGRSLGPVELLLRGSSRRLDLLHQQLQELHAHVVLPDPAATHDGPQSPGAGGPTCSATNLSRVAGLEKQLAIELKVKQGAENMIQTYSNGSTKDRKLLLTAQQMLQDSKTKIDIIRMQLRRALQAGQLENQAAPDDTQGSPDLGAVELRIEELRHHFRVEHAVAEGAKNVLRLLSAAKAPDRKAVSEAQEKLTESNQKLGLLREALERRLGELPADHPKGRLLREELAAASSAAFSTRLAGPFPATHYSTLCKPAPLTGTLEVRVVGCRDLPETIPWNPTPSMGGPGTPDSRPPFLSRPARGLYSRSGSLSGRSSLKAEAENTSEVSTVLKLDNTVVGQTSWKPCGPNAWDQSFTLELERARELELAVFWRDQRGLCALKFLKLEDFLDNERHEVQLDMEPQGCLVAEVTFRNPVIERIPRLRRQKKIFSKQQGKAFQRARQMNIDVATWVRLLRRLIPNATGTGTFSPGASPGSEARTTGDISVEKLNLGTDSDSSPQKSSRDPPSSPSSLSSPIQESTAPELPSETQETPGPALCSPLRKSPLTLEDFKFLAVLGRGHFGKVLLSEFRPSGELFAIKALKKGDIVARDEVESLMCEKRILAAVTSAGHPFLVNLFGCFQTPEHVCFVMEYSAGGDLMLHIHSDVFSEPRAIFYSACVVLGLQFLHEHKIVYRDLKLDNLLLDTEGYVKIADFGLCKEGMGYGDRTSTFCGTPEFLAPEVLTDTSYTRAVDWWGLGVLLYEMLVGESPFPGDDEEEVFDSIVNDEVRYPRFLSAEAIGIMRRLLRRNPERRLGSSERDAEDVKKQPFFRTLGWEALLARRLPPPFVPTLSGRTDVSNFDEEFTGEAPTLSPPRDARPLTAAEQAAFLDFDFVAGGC
pIC50: −log10 of the molar value.
METRIC: pIC50

The molecule N[C@H]1CC[C@H](Nc2cc(-c3cccc(NCc4cccc(F)c4)n3)c(Cl)cn2)CC1 showed pIC50 equal to < 5.00

====

Biological target: CDK1-CycB (Homo sapiens, UniProt P06493)
Sequence (P06493 whole entry): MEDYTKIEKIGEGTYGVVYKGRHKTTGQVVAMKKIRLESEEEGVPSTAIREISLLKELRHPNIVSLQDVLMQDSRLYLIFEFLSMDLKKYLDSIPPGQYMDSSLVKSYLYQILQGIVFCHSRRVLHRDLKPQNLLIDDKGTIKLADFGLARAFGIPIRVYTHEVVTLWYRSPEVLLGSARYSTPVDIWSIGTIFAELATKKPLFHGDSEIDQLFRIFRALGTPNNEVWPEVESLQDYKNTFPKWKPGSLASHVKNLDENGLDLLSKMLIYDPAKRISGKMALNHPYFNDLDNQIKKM
Sequence (P14635 whole entry partner): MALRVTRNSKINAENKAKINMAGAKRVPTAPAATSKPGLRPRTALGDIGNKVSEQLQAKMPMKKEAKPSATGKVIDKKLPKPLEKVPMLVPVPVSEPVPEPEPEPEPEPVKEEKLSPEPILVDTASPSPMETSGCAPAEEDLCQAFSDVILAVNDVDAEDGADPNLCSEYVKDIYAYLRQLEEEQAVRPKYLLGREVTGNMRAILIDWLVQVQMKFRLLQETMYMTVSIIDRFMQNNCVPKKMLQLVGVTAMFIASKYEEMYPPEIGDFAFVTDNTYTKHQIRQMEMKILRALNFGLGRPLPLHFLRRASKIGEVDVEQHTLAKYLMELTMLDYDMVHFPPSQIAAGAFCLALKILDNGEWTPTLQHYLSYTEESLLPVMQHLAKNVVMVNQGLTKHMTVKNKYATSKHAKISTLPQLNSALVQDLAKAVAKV
METRIC: IC50 (nM)
Enter your answer as a number in nM; do not include the unit.

Summary: N[C@H]1CC[C@H](Nc2cc(-c3cccc(NCc4cccc(F)c4)n3)c(Cl)cn2)CC1 , CDK1-CycB (Homo sapiens, UniProt P06493), IC50 = 1700

====

Molecular target: CDK9-CycT1 (Homo sapiens, UniProt P50750)
Sequence (P50750 whole entry): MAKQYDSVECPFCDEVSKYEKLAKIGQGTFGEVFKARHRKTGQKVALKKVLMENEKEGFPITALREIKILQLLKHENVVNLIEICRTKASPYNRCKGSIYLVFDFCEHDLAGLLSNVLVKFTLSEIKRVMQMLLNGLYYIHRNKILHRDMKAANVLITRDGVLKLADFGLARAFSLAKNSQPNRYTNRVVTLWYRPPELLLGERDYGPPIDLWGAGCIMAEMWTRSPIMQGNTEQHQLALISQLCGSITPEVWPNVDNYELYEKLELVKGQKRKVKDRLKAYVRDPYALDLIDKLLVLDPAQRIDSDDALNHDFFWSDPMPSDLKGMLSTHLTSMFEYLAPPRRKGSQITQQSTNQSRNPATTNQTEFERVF
Sequence (O60563 whole entry partner): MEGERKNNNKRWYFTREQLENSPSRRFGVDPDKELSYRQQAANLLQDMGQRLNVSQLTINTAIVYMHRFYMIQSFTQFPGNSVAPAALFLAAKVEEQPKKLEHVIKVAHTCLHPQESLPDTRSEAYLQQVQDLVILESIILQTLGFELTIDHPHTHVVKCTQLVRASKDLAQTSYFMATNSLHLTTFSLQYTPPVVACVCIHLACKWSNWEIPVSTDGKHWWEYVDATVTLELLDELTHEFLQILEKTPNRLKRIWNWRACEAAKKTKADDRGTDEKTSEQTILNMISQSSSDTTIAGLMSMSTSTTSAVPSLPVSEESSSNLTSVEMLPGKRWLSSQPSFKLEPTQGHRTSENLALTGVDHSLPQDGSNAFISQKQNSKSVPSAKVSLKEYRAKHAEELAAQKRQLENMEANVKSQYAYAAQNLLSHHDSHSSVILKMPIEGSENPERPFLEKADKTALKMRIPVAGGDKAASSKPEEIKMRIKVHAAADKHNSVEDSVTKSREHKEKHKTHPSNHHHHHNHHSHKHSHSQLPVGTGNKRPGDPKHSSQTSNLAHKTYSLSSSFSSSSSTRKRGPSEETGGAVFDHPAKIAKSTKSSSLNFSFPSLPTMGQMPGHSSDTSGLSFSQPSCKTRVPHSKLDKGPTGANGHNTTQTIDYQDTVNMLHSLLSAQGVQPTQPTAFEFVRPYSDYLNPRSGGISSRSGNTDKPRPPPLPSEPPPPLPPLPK
Assay: In vitro kinase assay with CDK7tide, effect of BRD4 on response to i-CDK9
Type: biochemical
Settings: CDK9/CycT1, absence of BRD4
METRIC: pIC50
Formally, pIC50 is defined as -log10 of the concentration c, with c in mol/L.

The compound N[C@H]1CC[C@H](Nc2cc(-c3cccc(NCc4cccc(F)c4)n3)c(Cl)cn2)CC1 showed pIC50 equal to 8.36

====

Target: FGFR1 (Homo sapiens, UniProt P11362)
Sequence (P11362 22-822): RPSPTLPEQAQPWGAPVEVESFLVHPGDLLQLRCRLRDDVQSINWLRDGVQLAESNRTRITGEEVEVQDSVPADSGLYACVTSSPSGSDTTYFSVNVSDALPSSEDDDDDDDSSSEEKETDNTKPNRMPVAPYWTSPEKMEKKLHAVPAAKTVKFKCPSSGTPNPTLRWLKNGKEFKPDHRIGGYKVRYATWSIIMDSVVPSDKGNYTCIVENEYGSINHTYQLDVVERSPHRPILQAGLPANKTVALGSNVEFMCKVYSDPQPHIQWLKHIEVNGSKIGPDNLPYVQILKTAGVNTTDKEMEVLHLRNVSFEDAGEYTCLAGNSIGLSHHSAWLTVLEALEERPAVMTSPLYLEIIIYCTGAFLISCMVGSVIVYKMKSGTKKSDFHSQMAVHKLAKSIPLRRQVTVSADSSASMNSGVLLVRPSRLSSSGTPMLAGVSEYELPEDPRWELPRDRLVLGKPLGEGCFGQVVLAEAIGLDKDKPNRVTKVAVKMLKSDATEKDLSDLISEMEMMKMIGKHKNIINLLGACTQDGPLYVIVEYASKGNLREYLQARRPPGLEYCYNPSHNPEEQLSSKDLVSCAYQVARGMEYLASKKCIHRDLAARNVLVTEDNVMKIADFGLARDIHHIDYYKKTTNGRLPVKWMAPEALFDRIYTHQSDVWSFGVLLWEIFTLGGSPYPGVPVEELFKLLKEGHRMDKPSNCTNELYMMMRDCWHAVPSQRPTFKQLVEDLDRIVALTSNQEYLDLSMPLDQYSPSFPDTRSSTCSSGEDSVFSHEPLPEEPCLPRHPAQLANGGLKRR
METRIC: IC50

The compound N[C@H]1CC[C@H](Nc2cc(-c3cccc(NCc4cccc(F)c4)n3)c(Cl)cn2)CC1 showed IC50 equal to > 10 µM
